system: Human immunodeficiency virus 1; test: Anti-HIV activity against NNRTI-resistant HIV-1 harboring RT Y181C mutant infected in human MT4 cells assessed as inhibition of virus-induced cytopathic effect incubated for 5 days by MTT assay; assay type: functional, organism-based; settings: Human immunodeficiency virus 1, MT4, 120 h
Measured pEC50, listed per entry.
Reminder that pEC50 is minus the log10 of a molar concentration.

>>> df
                                   compound  endpoint_result
0  O=C1Nc2ccc(Cl)cc2[C@@](C#CC2CC2)(C(F)(F)F)O1             8.32

Input: Query pEC50 for CCOC(=O)C#Cc1cnc(Nc2ccc(C#N)cc2)nc1Oc1c(C)cc(C#N)cc1C
Output: 7.87

---

Measured selectivity ratio, listed per entry.
test: Selectivity index, ratio of CC50 cytotoxicity against human MT4 cells to EC50 for anti-HIV activity against NNRTI-resistant HIV-1 RES056 harboring RT K103N/Y181C double mutant infected in human MT4 cells; type: toxicity, cell-based; conditions: read-out: Ratio CC50/EC50
# output: bare number, no unit

Input: Query selectivity ratio for Cc1cc(C#N)cc(C)c1Oc1nc(Nc2ccc(C#N)cc2)ncc1C#CC(=O)NCCOCCO
Output: 11

Input: Query selectivity ratio for Cc1cc(C#N)cc(C)c1Oc1nc(Nc2ccc(C#N)cc2)ncc1C#CC(=O)NC1CC1
Output: 17

Input: Query selectivity ratio for COC(=O)C1CCC(NC(=O)C#Cc2cnc(Nc3ccc(C#N)cc3)nc2Oc2c(C)cc(C#N)cc2C)CC1 (stereo unspecified)
Output: 17

Input: Query selectivity ratio for COCCNC(=O)C#Cc1cnc(Nc2ccc(C#N)cc2)nc1Oc1c(C)cc(C#N)cc1C
Output: 379

Input: Query selectivity ratio for C#CCNC(=O)C#Cc1cnc(Nc2ccc(C#N)cc2)nc1Oc1c(C)cc(C#N)cc1C
Output: 9

Input: Query selectivity ratio for Cc1cc(C#N)cc(C)c1Oc1nc(Nc2ccc(C#N)cc2)ncc1C#CC(=O)NCCCN1CCOCC1
Output: 17

Input: Query selectivity ratio for CCOC(=O)C#Cc1cnc(Nc2ccc(C#N)cc2)nc1Oc1c(C)cc(C#N)cc1C
Output: 260

Input: Query selectivity ratio for C#CCNC(=O)/C=C/c1cnc(Nc2ccc(C#N)cc2)nc1Oc1c(C)cc(C#N)cc1C
Output: 109

Input: Query selectivity ratio for Cc1cc(C#N)cc(C)c1Oc1nc(Nc2ccc(C#N)cc2)ncc1SCC(=O)NCCCN1CCOCC1
Output: 61

Input: Query selectivity ratio for Cc1cc(C#N)cc(C)c1Oc1nc(Nc2ccc(C#N)cc2)ncc1C#CC(=O)NCCN1CCN(C(=O)OC(C)(C)C)CC1
Output: 6

---

Measured CC50 at 120 h, listed per entry.
assay: Cytotoxicity against human MT4 cells assessed as reduction in cell viability incubated for 5 days by MTT assay; type: toxicity, cell-based; details: time 5 day
Form entry: value (µM) — number only.

Some molecules with known CC50 at 120 h results, for comparison:
In [3]: df
Out[3]:
                               entry_smiles   readout_kind  unit_text  endpoint_result
0  Cc1cc(C#N)cc(C)c1Oc1nc(Nc2ccc(C#N)cc2)ncc1C#CC(=O)NCCOCCO  CC50 at 120 h         µM             9.38
1  Cc1cc(C#N)cc(C)c1Oc1nc(Nc2ccc(C#N)cc2)ncc1C#CC(=O)NCCN1CCN(S(C)(=O)=O)CC1  CC50 at 120 h         µM             4.89

Input: Query CC50 at 120 h for CCOC(=O)C#Cc1cnc(Nc2ccc(C#N)cc2)nc1Oc1c(C)cc(C#N)cc1C
Output: 34.5

Input: Query CC50 at 120 h for COCCNC(=O)C#Cc1cnc(Nc2ccc(C#N)cc2)nc1Oc1c(C)cc(C#N)cc1C
Output: 13.6

Input: Query CC50 at 120 h for C#CCNC(=O)C#Cc1cnc(Nc2ccc(C#N)cc2)nc1Oc1c(C)cc(C#N)cc1C
Output: 7.02

---

assay: Aqueous solubility of the compound at pH 2.0; assay type: physicochemical; settings: aqueous medium
Readout Kind: solubility (µg/mL)
Form entry: value (µg/mL) — number only.

Input: Query solubility for COCCNC(=O)C#Cc1cnc(Nc2ccc(C#N)cc2)nc1Oc1c(C)cc(C#N)cc1C
Output: 22.8

---

test: Aqueous solubility of the compound at pH 7.4; assay type: physicochemical; conditions: aqueous medium
Readout Kind: solubility

Input: Query solubility for COCCNC(=O)C#Cc1cnc(Nc2ccc(C#N)cc2)nc1Oc1c(C)cc(C#N)cc1C
Output: 7.84 µg/mL

---

Measured CC50 at 120 h, listed per entry.
experiment: Cytotoxicity against human MT4 cells assessed as reduction in cell viability incubated for 5 days by MTT assay; assay type: toxicity, cell-based; conditions: time 5 day
Form entry: value (µM) — number only.

>>> df
                                   molecule   readout_kind  endpoint_result
0  Cc1cc(C#N)cc(C)c1Oc1nc(Nc2ccc(C#N)cc2)ncc1C#CC(=O)NCCN1CCN(C(=O)OC(C)(C)C)CC1  CC50 at 120 h             22.4

Input: Query CC50 at 120 h for Cc1cc(C#N)cc(C)c1Oc1nc(Nc2ccc(C#N)cc2)ncc1C#CC(=O)NCCCN1CCOCC1
Output: 59.2

Input: Query CC50 at 120 h for COC(=O)C1CCC(NC(=O)C#Cc2cnc(Nc3ccc(C#N)cc3)nc2Oc2c(C)cc(C#N)cc2C)CC1 (centres undefined)
Output: 11.5

Input: Query CC50 at 120 h for Cc1cc(C#N)cc(C)c1Oc1nc(Nc2ccc(C#N)cc2)ncc1C#CC(=O)NC1CC1
Output: 5.3

---

assay: Selectivity index, ratio of CC50 cytotoxicity against human MT4 cells to EC50 for anti-HIV activity against wild type HIV-1 IIIB infected in human MT4 cells; type: toxicity, cell-based; conditions: read-out: Ratio CC50/EC50
Rule: selectivity ratio below 1000 gives TRUE. Equal to or above 1000 gives FALSE.

>>> df
                                   compound  qualitative_label
0  Cc1cc(C#N)cc(C)c1Oc1nc(Nc2ccc(C#N)cc2)ncc1C#CC(=O)NCCN1CCOCC1              FALSE
1  CCOC(=O)C#Cc1cnc(Nc2ccc(C#N)cc2)nc1Oc1c(C)cc(C#N)cc1C              FALSE

Input: Please check: selectivity ratio for Cc1cc(C#N)cc(C)c1Oc1nc(Nc2ccc(C#N)cc2)ncc1C#CC(=O)NCCN1CCN(S(C)(=O)=O)CC1 , strictly under 1000 or not?
Output: TRUE

Input: Please check: selectivity ratio for C#CCNC(=O)/C=C/c1cnc(Nc2ccc(C#N)cc2)nc1Oc1c(C)cc(C#N)cc1C , strictly under 1000 or not?
Output: FALSE

Input: Please check: selectivity ratio for Cc1cc(C#N)cc(C)c1Oc1nc(Nc2ccc(C#N)cc2)ncc1C#CC(=O)NCCCN1CCOCC1 , strictly under 1000 or not?
Output: FALSE

Input: Please check: selectivity ratio for C#CCNC(=O)C#Cc1cnc(Nc2ccc(C#N)cc2)nc1Oc1c(C)cc(C#N)cc1C , strictly under 1000 or not?
Output: FALSE

Input: Please check: selectivity ratio for Cc1cc(C#N)cc(C)c1Oc1nc(Nc2ccc(C#N)cc2)ncc1C#CC(=O)NCCOCCO , strictly under 1000 or not?
Output: TRUE

Input: Please check: selectivity ratio for COC(=O)C1CCC(NC(=O)C#Cc2cnc(Nc3ccc(C#N)cc3)nc2Oc2c(C)cc(C#N)cc2C)CC1 (configuration not stated) , strictly under 1000 or not?
Output: FALSE

Input: Please check: selectivity ratio for Cc1cc(C#N)cc(C)c1Oc1nc(Nc2ccc(C#N)cc2)ncc1C#CC(=O)NCCN1CCN(C(=O)OC(C)(C)C)CC1 , strictly under 1000 or not?
Output: FALSE

---

assay: Resistance factor, ratio of EC50 for anti-HIV activity against NNRTI-resistant HIV-1 RES056 harboring RT K103N/Y181C double mutant infected in human MT4 cells to EC50 for anti-HIV activity against wild type HIV-1 IIIB infected in human MT4 cells; assay type: functional
Measured Ratio EC50, listed per entry.

Some compounds with known Ratio EC50 results, for comparison:
In [3]: df
Out[3]:
                                   compound  endpoint_result
0  CCOC(=O)C#Cc1cnc(Nc2ccc(C#N)cc2)nc1Oc1c(C)cc(C#N)cc1C               31
1  Cc1cc(C#N)cc(C)c1Oc1nc(Nc2ccc(C#N)cc2)ncc1C#CC(=O)NCCOCCO               78
2  Cc1cc(C#N)cc(C)c1Oc1nc(Nc2ccc(C#N)cc2)ncc1C#CC(=O)NCCCN1CCOCC1              268

Input: Query Ratio EC50 for Cc1cc(C#N)cc(C)c1Oc1nc(Nc2ccc(C#N)cc2)ncc1C#CC(=O)NCCN1CCN(C(=O)OC(C)(C)C)CC1
Output: 219

Input: Query Ratio EC50 for COC(=O)C1CCC(NC(=O)C#Cc2cnc(Nc3ccc(C#N)cc3)nc2Oc2c(C)cc(C#N)cc2C)CC1 (configuration not stated)
Output: 104

Input: Query Ratio EC50 for C#CCNC(=O)/C=C/c1cnc(Nc2ccc(C#N)cc2)nc1Oc1c(C)cc(C#N)cc1C
Output: 248

Input: Query Ratio EC50 for COCCNC(=O)C#Cc1cnc(Nc2ccc(C#N)cc2)nc1Oc1c(C)cc(C#N)cc1C
Output: 18

Input: Query Ratio EC50 for Cc1cc(C#N)cc(C)c1Oc1nc(Nc2ccc(C#N)cc2)ncc1SCC(=O)NCCCN1CCOCC1
Output: 113

Input: Query Ratio EC50 for Cc1cc(C#N)cc(C)c1Oc1nc(Nc2ccc(C#N)cc2)ncc1C#CC(=O)NC1CC1
Output: 66

Input: Query Ratio EC50 for Cc1cc(C#N)cc(C)c1Oc1nc(Nc2ccc(C#N)cc2)ncc1C#CC(=O)NCCN1CCN(S(C)(=O)=O)CC1
Output: 70

Input: Query Ratio EC50 for Cc1cc(C#N)cc(C)c1Oc1nc(Nc2ccc(C#N)cc2)ncc1C#CC(=O)NCCN1CCOCC1
Output: 957

Input: Query Ratio EC50 for C#CCNC(=O)C#Cc1cnc(Nc2ccc(C#N)cc2)nc1Oc1c(C)cc(C#N)cc1C
Output: 132
